Measured melting point of individual entries

compound	melting point
CCCCc1ccc(N=C2NCCCN2)cc1	116 to 119 °C
CCOCc1nc2c(N)nc3cc(OCc4nc(-c5cccs5)no4)ccc3c2n1CC(C)(C)O	173 to 175 °C
C=CCC(C)(C)C(NC(=O)c1ccc(Cl)cc1)NC(=NC#N)Nc1cccnc1 (stereo not given)	97 to 98 °C

Exam item: Entry CO[C@@]1(C)O[C@@H]2[C@H](OCc3ccccc3)OC[C@H](OC(=O)c3ccc([N+](=O)[O-])cc3)[C@H]2O[C@]1(C)OC needs its melting point filled in; supply it.
Marked response: 58 to 59 °C

Exam item: Tell me measured melting point for FC(F)(F)CO[Si](c1ccccc1)(c1ccccc1)c1ccccc1 please.
Marked response: 114 °C

Exam item: Using known records, supply melting point for O=C1OC2CCC1OC2 (stereo not given)
Marked response: 56 to 57 °C

Exam item: Provide melting point value for the following compound: CC(=O)Nc1nc2c(Oc3cc(-c4ccc(C(F)(F)F)cc4OCc4ccccc4)ncn3)cccc2s1
Marked response: 201 to 203 °C

Exam item: Supply recorded melting point for O=C(COc1ccc(C(=O)C(=O)O)cc1)NC1CCCCCCC1 here.
Marked response: 139 to 140 °C

Exam item: Using known records, supply melting point for Cn1c(C(F)(F)F)cc(=O)n(-c2ccc(Cl)c(C=CC(=O)OCC(F)(F)F)c2)c1=O
Marked response: 170 to 172 °C

Exam item: Name the recorded melting point of the item Nc1nc2[nH]c(=S)sc2c(=O)[nH]1 in your answer.
Marked response: > 300 °C

Source of measurements: a melting point compilation (Tetko et al.; mined from patent text by program, amines drawn as free bases though some values may be those of a salt)
